MEASUREMENT PROTOCOL: Human HepG2 cell viability assay in 384 well format
Assay type: toxicity, cell-based
Parameters: dose 125 nL, time 70.5 hour; concentration not given beside the values
CONDITION INFO: HepG2 cells, read-out: Inhibition

COMPOUND | cytotoxicity at 70.5 h [%]
CCc1noc(C(C)N2CCN(CCOCC(F)(F)F)CC2)n1 (stereo not drawn) | -2.37
CS(=O)(=O)N1CCCC12CCCN(S(=O)(=O)c1cc(F)cc(F)c1)C2 (stereo not drawn) | -5.59
O[C@H]1[C@H](NCCc2ccccn2)c2ccccc2C12CCNCC2 | 20.6

====

MEASUREMENT PROTOCOL: Human HepG2 cell viability assay in 384 well format
Assay type: toxicity, cell-based
Design: dose 125 nL, time 70.5 hour; concentration not given beside the values
CONDITION INFO: HepG2 cells, read-out: Inhibition
A collection of molecules and their measured cytotoxicity at 70.5 h
QUANTITY NAME: cytotoxicity at 70.5 h (%)

MOLECULE | QUANTITY NAME | QUANTITATIVE RESULT
CN1CC(=O)N(c2ccsc2)CC12CCN(C(=O)N1CCCC1)C2 (centres undefined) | cytotoxicity at 70.5 h | -7.42
CN1C(=O)CCc2cc(NS(=O)(=O)Cc3cccc(F)c3)ccc21 | cytotoxicity at 70.5 h | -8.13
CCCN1CCC(NCc2ccncc2)CC1 | cytotoxicity at 70.5 h | -5.69
CS(=O)(=O)c1ccc(NCc2ccc(F)cc2)cn1 | cytotoxicity at 70.5 h | -6.37
COCCNC(=O)NCCn1nc(C(F)(F)F)n(C)c1=O | cytotoxicity at 70.5 h | -4.7
CCN1C[C@@H]2[C@@H](OC)CCN(C(=O)c3cc(C)nn3CC)[C@@H]2C1 | cytotoxicity at 70.5 h | 8.5
Cc1ccc(Br)cc1NC(=O)NC1CCC2(C1)OCCO2 (centres undefined) | cytotoxicity at 70.5 h | 18.1
CCNC(=O)N1CCc2ccc(NC(=O)C(C)c3ccsc3)cc21 (centres undefined) | cytotoxicity at 70.5 h | -11.3
COc1cccc(N2CC3(CCN(Cc4nccn4C)C3)CC2=O)c1 (centres undefined) | cytotoxicity at 70.5 h | -16.5

====

MEASUREMENT PROTOCOL: Human HepG2 cell viability assay in 384 well format
Assay type: toxicity, cell-based
Design: dose 125 nL, time 70.5 hour; concentration not given beside the values
CONDITION INFO: HepG2 cells, read-out: Inhibition
A collection of molecules and their measured cytotoxicity at 70.5 h
QUANTITY NAME: cytotoxicity at 70.5 h (%)

MOLECULE | QUANTITATIVE RESULT
CC(=O)NCCNC(=O)c1sc(-c2ccc(Cl)cc2)nc1C | -4.15
COC(=O)c1ccc(N2CCN(C(=O)CCCc3cn[nH]c3)CC2)cc1 | -2.65
O=C(c1cnoc1)N1CCC[C@]2(C[C@@H](Oc3ccccn3)CO2)C1 | -6.93
CCCC(C)NC(=O)c1ccc(-c2ccco2)[nH]c1=O (centres undefined) | -2.99
CCCn1cc(C(=O)NCC(=O)NC2CC2)c(C)n1 | -0.483
O=C(c1cnccn1)N1CCN(Cc2cscn2)CC1 | 31.3
Cc1c[nH]c(C2COCCN2C(=O)c2n[nH]c(=O)c3ccccc23)n1 (centres undefined) | -13.4
CC1=N[C@@]2(CC[C@@H]3CN(S(C)(=O)=O)C[C@@H]32)C(=O)N1CC(C)C | -15.6
CCc1c(C)nc2cc(C3CCN(CCc4ccccc4)C3)nn2c1O (centres undefined) | -0.223
